test: Enzymatic kinetic measurements of purified proteins with compound A as substrate; format: biochemical; conditions: purified protein, compound A 0-1000 μM as substrate
parameter: Kcat (S^−1)
Give the value in S^−1 but do not write S^−1 after it.

Per the record, SEQ ID NO: 54: RdpA mutant L82H + V187L + F182W + R104G + R180W (protein) MHAALSPLSQRFERIAVQPLTGVLGAEITGVDLREPLDDSTWNEILDAFHTYQVIYFPGQAITNEQHIAFSRRFGPVDPVPHLKSIEGYPEVQMIRREANESGGVIGDDWHTDSTFLDAPPAAVVMRAIDVPEHGGDTGFLSMYTAWETLSPTMQATIEGLNVVHSATRVFGSLYQAQNWRWSNTSLKVMDVDAGDRETVHPLVVTHPGSGRKGLYVNQVYCQRIEGMTDAESKPLLQFLYEHATRFDFTCRVRWKKDQVLVWDNLCTMHRAVPDYAGKFRYLTRTTVGGVRPAR has Kcat of 0.35
